# tested_target: protein kinase
# test_protocol: HTS ATP-utilizing enzyme assay, off-chip mobility-shift format (Caliper HTS 250)
# Format: biochemical, human
# settings: kinase(s) for which the compound exhibits protein kinase inhibitory activity; test compound 10 μM; active = greater than three-sigma from the mean activity of inactive compounds
test_readout: Kinase

Recorded Kinase, per entry:
- compound: "O=C(CSc1nnc(-c2ccc(O)cc2)n1-c1cccc(Cl)c1)NCc1ccccc1"
  test_value: "GSK3-α"
- compound: "Cn1c(Cc2ccccc2)nnc1SCC(N)=O"
  test_value: "HCK"
- compound: "O=C(CSc1nnc(-c2ccc(O)cc2)n1-c1ccccc1)c1ccccc1"
  test_value: "GSK3-α"
- compound: "Cc1cccc(NC(=O)CSc2nnc(-c3ccc(O)cc3)n2-c2ccccc2)c1C"
  test_value: "MSK2"

Now examine the next entry.
What value of measured Kinase is listed for CCn1c(SC(C)C(=O)O)nnc1-c1cccnc1 (stereo not drawn) ? LYNA
